Assay: Metabolic stability in rat liver microsomes in presence of NADPH and UGT at 5 mins by UHPLC-TSQ mass spectrometer
Assay type: ADME, microsome
assay_metric: Stability (nM)
Provide the reading as a plain figure in nM.

{"compound": "CC(C)CCn1ccnc1/C=C/C(=O)/C=C/c1nccn1CCC(C)C", "assay_metric": "Stability", "observed": 850}
{"compound": "COc1cc(/C=C/C(=O)CC(=O)/C=C/c2ccc(O)c(OC)c2)ccc1O [CURCUMIN]", "assay_metric": "Stability", "observed": 589.6}
{"compound": "O=C(/C=C/c1nccn1-c1ccccc1)/C=C/c1nccn1-c1ccccc1", "assay_metric": "Stability", "observed": 624.9}

Briefly, Stability measured for "COc1ccccc1-n1ccnc1/C=C/C(=O)/C=C/c1nccn1-c1ccccc1OC" : 922.1

----------
Assay: Observed MRT (0 to infinity) in Sprague-Dawley rat at 10 mg/kg administered via oral gavage after 1 to 24 hrs by HPLC-MS/MS method
Assay type: ADME, organism-based
Settings: in vivo
assay_metric: MRT inf (h)
Provide the reading as a plain figure in h.

Briefly, MRT inf measured for "COc1ccccc1-n1ccnc1/C=C/C(=O)/C=C/c1nccn1-c1ccccc1OC" : 6.16

----------
Tested on: PC-3
Experiment: Potency index, ratio of curcumin IC50 to test compound IC50 for androgen-insensitive human PC3 cells
Type: functional
Item-by-item account of Ratio IC50
Give the value as a plain number.

Please review the following examples before continuing.
{"smiles_structure": "O=C(/C=C/c1nc2ccccc2n1-c1cccc(Cl)c1)/C=C/c1nc2ccccc2n1-c1cccc(Cl)c1", "Ratio IC50": 1.1}
{"smiles_structure": "O=C(/C=C/c1nccn1-c1nccs1)/C=C/c1nccn1-c1nccs1", "Ratio IC50": 98}
{"smiles_structure": "O=C(/C=C/c1nccn1-c1cccc(Cl)c1)/C=C/c1nccn1-c1cccc(Cl)c1", "Ratio IC50": 111}
{"smiles_structure": "O=C(/C=C/c1cc2ncccc2n1-c1ccccc1)/C=C/c1cc2ncccc2n1-c1ccccc1", "Ratio IC50": 25}
{"smiles_structure": "O=C(/C=C/c1ncc[nH]1)/C=C/c1ncc[nH]1", "Ratio IC50": 0.08}

Briefly, Ratio IC50 measured for "O=C(/C=C/c1nccn1-c1ccsc1)/C=C/c1nccn1-c1ccsc1" : 3.3

Briefly, Ratio IC50 measured for "COc1ccccc1-n1ccnc1/C=C/C(=O)/C=C/c1nccn1-c1ccccc1OC" : 231

Briefly, Ratio IC50 measured for "O=C(/C=C/c1nccn1-c1cccs1)/C=C/c1nccn1-c1cccs1" : 98

Briefly, Ratio IC50 measured for "O=C(/C=C/c1nc2ccccc2n1-c1ccccc1)/C=C/c1nc2ccccc2n1-c1ccccc1" : 9

Briefly, Ratio IC50 measured for "O=C(/C=C/c1nccn1-c1ccccc1)/C=C/c1nccn1-c1ccccc1" : 212

Briefly, Ratio IC50 measured for "COc1cccc(-n2ccnc2/C=C/C(=O)/C=C/c2nccn2-c2cccc(OC)c2)c1" : 116

Briefly, Ratio IC50 measured for "O=C(/C=C/c1nc2ccccc2n1-c1cccs1)/C=C/c1nc2ccccc2n1-c1cccs1" : 22

----------
Test: Observed AUC (0 to infinity) in Sprague-Dawley rat at 10 mg/kg administered via oral gavage after 1 to 24 hrs by HPLC-MS/MS method
Format: ADME, organism-based
Parameters: dose 10 mg/kg, time infinity, route oral
Conditions: in vivo
assay_metric: AUC(0-inf) (ng·h/mL)
Provide the reading as a plain figure in ng·h/mL.

Briefly, AUC(0-inf) measured for "COc1ccccc1-n1ccnc1/C=C/C(=O)/C=C/c1nccn1-c1ccccc1OC" : 1800

These entries and their values trace back to ChEMBL document CHEMBL4229540.
